Hey, just so you know, these numbers are from PubChem BioAssay AID977622.

- Test system: E. coli WT ribosome GFP fluorescence, mixed culture, 24 h
- assay.remarks: wild-type E. coli growth inhibition versus h38 humanized strain – h38 mutant RFP, wild-type GFP, cherry-pick, dose response (AID 977622)
- particulars: E. coli mixed culture, 24 h; measured here: total growth OD600
Results filed as inconclusive are left out.
Answer each item with its documented AC50.

molecule: Cc1ccc(S(=O)(=O)Nc2ccccc2CNc2cccc(C)n2)cc1
AC50: > 100 µM

molecule: Cn1cc(CN2CCCC(C(=O)Nc3cccc(-c4cc5ccccc5[nH]4)c3)C2)cn1 (stereo unspecified)
AC50: > 100 µM

molecule: COc1ccc(C#Cc2ccc([C@@H]3[C@@H](CO)N4CCCCN(C(=O)Nc5ccc(F)cc5)C[C@H]34)cc2)cc1
AC50: 50.6 µM

molecule: COc1ccc(CC(=O)Nc2nc(-c3cc(OC)ccc3OC)cs2)cc1
AC50: 8.91 µM

molecule: Cc1ccc(CNS(=O)(=O)c2ccc3c(c2)NC(=O)CS3)cc1
AC50: 41 µM

Kindly give each listed record's AC50.
1. CN(C)C(=O)C1C2NC(=S)N(c3cccc(Cl)c3)C1(C)Oc1ccc(Cl)cc12 (stereo unspecified)
2. COc1ccccc1NC(=O)COC(=O)Cc1c[nH]c2ccccc12
3. CC(Nc1ncnc2ccccc12)c1ccccc1 (stereo unspecified)
4. COc1ccc(OCC(=O)N2c3ccccc3CC2C)c([N+](=O)[O-])c1 (stereo unspecified)
5. Cc1ccc(Nc2cc(C(=O)NCCCN3CCOCC3)c3ccccc3n2)cc1C
6. COc1ccc(NC(=O)CCS(=O)(=O)c2ccccc2Cl)cc1S(=O)(=O)Nc1ccc(Cl)cc1

["> 100 µM", "> 100 µM", "> 100 µM", "> 100 µM", "> 100 µM", "> 100 µM"]
